EXPERIMENTAL SYSTEM: human β1-adrenergic receptor (Homo sapiens, UniProt P08588)
Sequence (P08588 whole entry): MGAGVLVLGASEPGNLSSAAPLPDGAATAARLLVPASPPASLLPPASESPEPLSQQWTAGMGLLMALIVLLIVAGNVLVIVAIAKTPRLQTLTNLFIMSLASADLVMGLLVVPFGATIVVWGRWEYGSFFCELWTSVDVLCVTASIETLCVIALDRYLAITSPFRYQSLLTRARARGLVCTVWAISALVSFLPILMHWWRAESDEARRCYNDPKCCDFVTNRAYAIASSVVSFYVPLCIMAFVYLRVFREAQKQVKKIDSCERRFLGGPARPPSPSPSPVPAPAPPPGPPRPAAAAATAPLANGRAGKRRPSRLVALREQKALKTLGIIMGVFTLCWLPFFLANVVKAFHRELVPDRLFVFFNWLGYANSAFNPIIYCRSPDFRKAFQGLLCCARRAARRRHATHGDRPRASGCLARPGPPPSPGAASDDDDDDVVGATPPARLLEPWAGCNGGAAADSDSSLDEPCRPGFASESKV
PROCEDURE SUMMARY: cAMP accumulation (SPA) in CHO cells transfected with human β1 adrenergic receptor
ASSAY SETUP: CHO cells transfected with human β1-AR; cAMP; 15 min incubation; 10^−8 to 10^−4 M; read-out: beta-1 EC50
RESULT TYPE: EC50 (µM)
Field format: number, assumed µM, no unit text.

**Query** Form field - read-out: EC50; system: human β1-adrenergic receptor (Homo sapiens, UniProt P08588); submitted item: CC(C)(C)OC(=O)CN(Cc1cc(F)ccc1F)S(=O)(=O)c1ccc(N2CCC(NC[C@H](O)c3ccc(O)c(NS(C)(=O)=O)c3)CC2)cc1 [Example 67]
**Result** 1

**Query** Likewise for COc1ccc(NS(=O)(=O)c2ccc(N3CCC(NCC(O)c4ccc(O)c(NS(C)(=O)=O)c4)CC3)cc2)cc1OC (stereo not shown) [Example 8] ?
**Result** 3.6

**Query** Would you mind doing CS(=O)(=O)Nc1cc(C(O)CNC2CCN(c3ccc(S(=O)(=O)NCc4ccccc4)cc3)CC2)ccc1O (stereo not shown) [Example 5] as well?
**Result** 2.2

**Query** Now this one: CCOC(=O)[C@@H](NS(=O)(=O)c1ccc(N2CCC(NC[C@H](O)c3ccc(O)c(NS(C)(=O)=O)c3)CC2)cc1)C(C)C [Example 38]
**Result** 1.1

###

EXPERIMENTAL SYSTEM: human β3 adrenergic receptor (Homo sapiens)
Construct: Full length β3 AR clones (402 amino acids) containing the last 6 amino acids of hβ3— AR are prepared
Sequence (P13945 whole entry): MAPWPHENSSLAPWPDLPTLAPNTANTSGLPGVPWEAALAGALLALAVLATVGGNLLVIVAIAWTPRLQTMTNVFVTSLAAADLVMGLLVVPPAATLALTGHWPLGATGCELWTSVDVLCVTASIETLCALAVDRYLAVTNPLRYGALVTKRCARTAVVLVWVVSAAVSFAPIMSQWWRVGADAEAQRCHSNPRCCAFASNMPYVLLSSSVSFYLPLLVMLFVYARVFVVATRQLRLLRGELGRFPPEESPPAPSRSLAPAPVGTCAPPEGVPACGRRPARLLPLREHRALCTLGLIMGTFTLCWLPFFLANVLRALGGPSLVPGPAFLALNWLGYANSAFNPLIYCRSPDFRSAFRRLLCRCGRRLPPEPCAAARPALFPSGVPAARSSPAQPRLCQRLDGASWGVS
PROCEDURE SUMMARY: cAMP accumulation (SPA) in CHO cells transfected with human β3 adrenergic receptor
ASSAY SETUP: CHO cells expressing human β3-AR; cAMP; 30 min incubation; 10^−9 M to 10^−5 M; read-out: beta-3 EC50
Counter-ions that a name gives are not always drawn.
Decide using EC50 alone. Strictly below 20 nM: Met. Equal to or above 20 nM: Not met.

**Query** Hi there! Is EC50 for CN(CC(=O)O)S(=O)(=O)c1ccc(N2CCC(NC[C@H](O)c3ccc(O)c(NS(C)(=O)=O)c3)CC2)cc1 below 20 nM, do you know?
**Result** Met

**Query** Then CS(=O)(=O)Nc1cc([C@@H](O)CNC2CCN(c3ccc(S(=O)(=O)NCC4CC4)cc3)CC2)ccc1O ?
**Result** Not met

**Query** Record: CCOC(=O)CN(Cc1cc(F)ccc1F)S(=O)(=O)c1ccc(N2CCC(NC[C@H](O)c3ccc(O)c(NS(C)(=O)=O)c3)CC2)cc1
**Result** Met

**Query** And the next one, CCOC(=O)[C@@H](NS(=O)(=O)c1ccc(N2CCC(NC[C@H](O)c3ccc(O)c(NS(C)(=O)=O)c3)CC2)cc1)C(C)C ?
**Result** Not met

**Query** And then CS(=O)(=O)Nc1cc([C@@H](O)CNC2CCN(c3ccc(S(=O)(=O)N4CCN(CC(=O)O)CC4)cc3)CC2)ccc1O [Example 65, Sodium Salt] , what is it?
**Result** Not met

**Query** Repeat with CCOC(=O)CN(C(C)C)S(=O)(=O)c1ccc(N2CCC(NC[C@H](O)c3ccc(O)c(NS(C)(=O)=O)c3)CC2)cc1
**Result** Met

**Query** Moving on to O=c1[nH]c2cccc(OCC(O)CNC3CCN(c4ccc(S(=O)(=O)NCc5ccccc5)cc4)CC3)c2[nH]1 (stereo not drawn)
**Result** Not met

**Query** Now give it for CS(=O)(=O)Nc1cc([C@@H](O)CNC2CCN(c3ccc(S(=O)(=O)N(CC(=O)O)CC4CC4)cc3)CC2)ccc1O too.
**Result** Met

**Query** Also need CS(=O)(=O)Nc1cc([C@@H](O)CNC2CCN(c3ccc(S(=O)(=O)N4CCCCC4)cc3)CC2)ccc1O , thanks.
**Result** Met

**Query** // query: CC(C)(C)OC(=O)CN(CC(=O)OC(C)(C)C)S(=O)(=O)c1ccc(N2CCC(NC[C@H](O)c3ccc(O)c(NS(C)(=O)=O)c3)CC2)cc1
**Result** Met

**Query** Now give it for CS(=O)(=O)Nc1cc([C@@H](O)CNC2CCN(c3ccc(S(=O)(=O)N4CCC[C@H]4C(=O)O)cc3)CC2)ccc1O too.
**Result** Not met

**Query** Again, but for CS(=O)(=O)Nc1cc([C@@H](O)CNC2CCN(c3ccc(S(=O)(=O)N4CCC[C@@H]4C(=O)O)cc3)CC2)ccc1O
**Result** Met

**Query** Also CCCCN(Cc1ccccc1)S(=O)(=O)c1ccc(N2CCC(NC[C@H](O)COc3cccc4[nH]c(=O)[nH]c34)CC2)cc1 ?
**Result** Not met

**Query** // repeat for CS(=O)(=O)Nc1cc([C@@H](O)CNC2CCN(c3ccc(S(=O)(=O)N4CCC[C@@H]4C(=O)OCc4ccccc4)cc3)CC2)ccc1O and report
**Result** Met

**Query** Repeat for the following molecule: CC(C)CN(CC(=O)O)S(=O)(=O)c1ccc(N2CCC(NC[C@H](O)c3ccc(O)c(NS(C)(=O)=O)c3)CC2)cc1
**Result** Met

**Query** Then CC#CCC(CC#CC)(C(=O)OC(C)(C)C)S(=O)(=O)c1ccc(N2CCC(NC[C@H](O)c3ccc(O)c(NS(C)(=O)=O)c3)CC2)cc1 ?
**Result** Met

**Query** Repeat for the following molecule: CS(=O)(=O)Nc1cc([C@@H](O)CNC2CCN(c3ccc(S(=O)(=O)N(CC(=O)O)CC(=O)O)cc3)CC2)ccc1O
**Result** Not met

**Query** What do we get for CC(C)OC(=O)C1CCCN1S(=O)(=O)c1ccc(N2CCC(NCC(O)COc3cccc4[nH]c(=O)[nH]c34)CC2)cc1 (stereo not drawn) ?
**Result** Met

**Query** Again, but for COc1ccc(NS(=O)(=O)c2ccc(N3CCC(NC[C@H](O)COc4cccc5[nH]c6ccccc6c45)CC3)cc2)cc1OC
**Result** Not met

**Query** # repeat for CCOC(=O)CN(C)S(=O)(=O)c1ccc(N2CCC(NC[C@H](O)c3ccc(O)c(NS(C)(=O)=O)c3)CC2)cc1
**Result** Not met

**Query** Check COC(=O)N(CC(=O)OC(C)(C)C)S(=O)(=O)c1ccc(N2CCC(NC[C@H](O)c3ccc(O)c(NS(C)(=O)=O)c3)CC2)cc1 too.
**Result** Met

**Query** Repeat with COc1ccc(NS(=O)(=O)c2ccc(N3CCC(NC[C@H](O)COc4ccc(O)cc4)CC3)cc2)cc1OC
**Result** Not met

**Query** What do you get for CNC(=O)C1CCCN1S(=O)(=O)c1ccc(N2CCC(NC[C@H](O)COc3cccc4[nH]c(=O)[nH]c34)CC2)cc1 (stereo partly drawn) ?
**Result** Not met

**Query** Same question, CC(C)OC(=O)C1CCCN1S(=O)(=O)c1ccc(N2CCC(NCC(O)c3ccc(O)c(NS(C)(=O)=O)c3)CC2)cc1 (stereo not drawn) this time
**Result** Met
